# Procedure text: qHTS profiling of the MIPE4 collection as inhibitors of Plasmodium falciparum (HB3) proliferation (AID 743347);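 also: plate controls were DMSO vehicle wells for no effect and artemisinin wells for full effect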
# Applied conditions: P. falciparum HB3 in erythrocytes, SYBR Green DNA, 72 h; at 28.5 µM (top of the series) unless noted
// growth, % of control lookup, one value per entry
Answer in %, number only, no unit symbol.

C[C@@H](Oc1ccc2[nH]nc(C=Cc3cnn(CCO)c3)c2c1)c1c(Cl)cncc1Cl 5.78
C[C@@H]1[C@H](C)CC[C@]2(C(=O)O)CC[C@]3(C)C(=CC[C@@H]4[C@@]5(C)C[C@@H](O)[C@H](O)[C@@](C)(CO)[C@H]5CC[C@]43C)[C@@H]12 43.6
CCc1cc(C(C)=NOCc2ccc(C3CCCCC3)c(C(F)(F)F)c2)ccc1CN1CC(C(=O)O)C1 11.3
C[C@H](NCc1ccc2c(c1)nc(NC(=O)c1ccc(-c3cn[nH]c3)s1)n2CCc1ccccc1)C(C)(C)C 10.1

Attention now turns to another entry.
[in] Let me know recorded growth, % of control for OCc1ccccc1O[C@@H]1O[C@H](CO)[C@H](O)[C@H](O)[C@H]1O , thanks.
[out] 92.1
